Below: a set of entries, each annotated with reported log10(Activity).
- Test system: Limulus
- ASSAY_COMMENT: Endotoxicity against horseshoe crab blood at 0.1 mg/mL by LAL chromogenic assay
- Assay type: toxicity, organism-based
- REPORTED_CONDITIONS: limulus polyphemus
Values below are the log10 of the recorded Activity, with EU/ml as the unit.

Examples with answers:
* CCCCCCCCCCCC(=O)O[C@H](CCCCCCCCCCC)CC(=O)N[C@@H](CCOP(=O)(O)O)C(=O)NCCC[C@H](COP(=O)(O)O)NC(=O)C[C@H](O)CCCCCCCCCCC | 2.38
* CCCCCCCCCCCC(=O)O[C@H](CCCCCCCCCCC)CC(=O)NC(CCOP(=O)(O)O)C(=O)NCCC[C@H](CO)NC(=O)C[C@H](O)CCCCCCCCCCC (mixture of isomers) | 4.21

I looked up CCCCCCCCCCCC(=O)O[C@H](CCCCCCCCCCC)CC(=O)N[C@H](CCOP(=O)(O)O)C(=O)NCCC[C@H](CO)NC(=O)C[C@H](O)CCCCCCCCCCC and its log10(Activity) for Limulus was 4.15

Item: CCCCCCCCCCCC(=O)O[C@H](CCCCCCCCCCC)CC(=O)N[C@H](CCOP(=O)(O)O)C(=O)NCCC[C@H](COP(=O)(O)O)NC(=O)C[C@H](O)CCCCCCCCCCC | System: Limulus | log10(Activity): 3.03

Fill in: Limulus log10(Activity) for CCCCCCCCCCCC(=O)O[C@H](CCCCCCCCCCC)CC(=O)NC(CCOP(=O)(O)O)C(=O)NCCC[C@H](COP(=O)(O)O)NC(=O)C[C@H](O)CCCCCCCCCCC (mixture of isomers) = 2.94

// assay Limulus, entry CCCCCCCCCCCC(=O)O[C@H](CCCCCCCCCCC)CC(=O)N[C@@H](CCOP(=O)(O)O)C(=O)NCCC[C@H](CO)NC(=O)C[C@H](O)CCCCCCCCCCC , log10(Activity) value = 3.97
